The values you see were collected from ChEMBL document CHEMBL4219038.

# Assay name: Plasma concentration (7 hrs) in J:Nu mouse at 30 mg/kg, po qd for 7 days measured on day 5
# Format: ADME, organism-based
Outcome measure: concentration at 7 h (µg/mL)
State the answer as a number, implicitly in µg/mL.

Ask | Item Cc1nn(-c2nc(-c3ccc(Cl)c(Cl)c3)c(SC(C)C)s2)c(C(=O)O)c1-c1cc(Cl)cc(Cl)c1 has what recorded concentration at 7 h?
Reply | 57.3

###

# Assay name: AUC (0 to infinity) in po dosed mouse
# Type: ADME, organism-based
# Design: route oral, time infinity
# Condition notes: in vivo
Outcome measure: AUC(0-inf) (µg·h/mL)
State the answer as a number, implicitly in µg·h/mL.

Ask | Item Cc1nn(-c2nc(-c3ccc(Cl)c(Cl)c3)c(SC(C)C)s2)c(C(=O)O)c1-c1cc(Cl)cc(Cl)c1 has what recorded AUC(0-inf)?
Reply | 25.8
